Give measured melting point for each item. Keep answers brief.

Below, 4 compounds whose answers are already recorded.
| compound | melting point |
| --- | --- |
| CC(C)(C)OC(=O)CO/N=C/c1cccc([N+](=O)[O-])c1 | 110 °C |
| Cc1cccc(C2(O)CCN(CC3CCc4ccccc4C3=O)CC2)c1 (stereo not drawn) | 157 to 159 °C |
| COC(=O)c1cc([N+](=O)[O-])cc(-c2ccc(NC(=O)OC(C)(C)C)cc2)c1C | 131 to 132 °C |
| NS(=O)(=O)c1c(Cl)sc(Cl)c1Br | 113 to 117 °C |

Okay, here is my list. What is melting point for each of these?
1. O=C(O)c1cc2c(s1)C(=O)CCC2
2. COC(=O)c1ccc2c(c1)N(C(=O)N1CCC(c3cccnc3)C1)CCO2 (stereo not drawn)
3. CCNC1CC=C(c2c[nH]c3ccc([N+](=O)[O-])cc23)CC1 (stereo not drawn)
4. CCOC(=O)COc1ccc(Cn2c(-c3ccc(C(F)(F)F)cc3)c(C)c3cc(OCc4ccccc4)ccc32)cc1
5. CCn1c(CC#N)ccc1C(=O)c1ccc(Cl)cc1

1: 174 to 175 °C; 2: 61 °C; 3: 177 to 179 °C; 4: 221 °C; 5: 145 to 147 °C

Every entry's value here was drawn from a melting point compilation (Tetko et al.; mined from patent text by program, amines drawn as free bases though some values may be those of a salt).
